All figures here come from PubChem BioAssay (NCI).

Tested on: MDA-MB-435
TEST PROTOCOL: NCI tumour cell line growth inhibition, 48 h
ASSAY READOUT: TGI

Solved cases (3 shown):
CCn1c2ccccc2c2ccc(C3C4C(=O)N(c5cccc6ccccc56)C(=O)C4ON3C(C(N)=O)c3ccccc3)cc21 (stereo not given)	> 25 µM
COc1cc(-c2nc(N)c(C#N)c3c2CCS(=O)(=O)c2ccc(C)cc2-3)cc(OC)c1OC	> 100 µM
CC(C)CCNC(=O)c1ccc(CNC(=O)/C=C/c2ccc3ccccc3c2)cc1	> 100 µM

# input for lookup
query: Which TGI is reported for this compound? C[n+]1cccc(NC(=O)c2ccc3ccc4ccc(C(=O)Nc5ccc[n+](C)c5)nc4c3n2)c1
result: > 100 µM
